Data provenance: patent US10081635B2

Record form. Attribute: inhibition at 1 µM. Fill in for each entry.
# measured_target: Human JAK2 (Homo sapiens (Human), UniProt O60674)
# Sequence (O60674 whole entry): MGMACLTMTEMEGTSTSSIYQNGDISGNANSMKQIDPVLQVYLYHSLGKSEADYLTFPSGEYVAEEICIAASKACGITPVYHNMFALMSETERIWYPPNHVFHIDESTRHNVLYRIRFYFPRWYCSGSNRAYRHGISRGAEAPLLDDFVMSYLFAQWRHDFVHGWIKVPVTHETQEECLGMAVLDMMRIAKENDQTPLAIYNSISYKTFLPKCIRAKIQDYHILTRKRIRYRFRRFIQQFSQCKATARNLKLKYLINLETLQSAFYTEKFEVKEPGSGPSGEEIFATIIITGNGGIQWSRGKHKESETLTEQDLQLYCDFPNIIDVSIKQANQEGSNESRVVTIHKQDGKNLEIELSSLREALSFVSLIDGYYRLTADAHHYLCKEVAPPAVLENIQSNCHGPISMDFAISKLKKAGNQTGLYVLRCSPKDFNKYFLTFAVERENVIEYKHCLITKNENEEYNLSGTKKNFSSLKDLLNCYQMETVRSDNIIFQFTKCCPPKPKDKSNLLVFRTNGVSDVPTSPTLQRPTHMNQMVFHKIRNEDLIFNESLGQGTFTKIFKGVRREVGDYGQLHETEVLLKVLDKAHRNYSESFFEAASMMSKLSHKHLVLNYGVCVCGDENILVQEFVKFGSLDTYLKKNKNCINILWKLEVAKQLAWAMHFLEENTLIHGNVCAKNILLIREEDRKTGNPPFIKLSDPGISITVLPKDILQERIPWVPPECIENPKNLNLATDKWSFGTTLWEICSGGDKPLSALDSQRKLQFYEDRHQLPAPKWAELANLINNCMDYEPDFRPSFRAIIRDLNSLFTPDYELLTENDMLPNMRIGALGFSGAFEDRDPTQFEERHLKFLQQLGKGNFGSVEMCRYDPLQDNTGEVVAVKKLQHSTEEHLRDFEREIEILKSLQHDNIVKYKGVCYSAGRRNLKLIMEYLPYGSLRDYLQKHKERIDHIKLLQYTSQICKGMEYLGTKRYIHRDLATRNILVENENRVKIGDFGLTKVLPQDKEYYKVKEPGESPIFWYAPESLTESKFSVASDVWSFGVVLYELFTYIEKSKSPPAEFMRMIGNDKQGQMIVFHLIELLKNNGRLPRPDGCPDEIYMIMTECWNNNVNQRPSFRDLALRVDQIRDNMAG
# assay_protocol: In vitro kinase inhibition test, JAK2 (33P-ATP filter scintillation)
# Type: biochemical
# applied_conditions: compound at 1 uM; read-out: JAK2 kinase-phosphorylation inhibitory level (% inhibition)
# Procedure: 1. In Vitro Kinase Inhibition Test Kinases used were human-derived JAK1, JAK2, JAK3, and TYK2 (Millipore, Germany). Each of these kinases was diluted with a suitable buffer solution as described below, and then mixed with reagents. […]
Your answer is read as %, so omit the unit and give the number.

INPUT: State its inhibition at 1 µM: `CN(c1ncnc2[nH]ccc12)[C@H]1CN(S(=O)(=O)C(F)(F)F)CC12CC2`
OUTPUT: 68

INPUT: State its inhibition at 1 µM: `CN(c1ncnc2[nH]ccc12)[C@H]1CN(C(=O)CN=[N+]=[N-])CC12CC2`
OUTPUT: 72

INPUT: State its inhibition at 1 µM: `CN(c1ncnc2[nH]ccc12)[C@H]1CN(S(=O)(=O)c2ccc(C#N)cc2)CC12CC2`
OUTPUT: 49

INPUT: State its inhibition at 1 µM: CN(c1ncnc2[nH]ccc12)C1CN(C(=O)CCN)CC12CC2 (stereo not shown)
OUTPUT: 2

INPUT: State its inhibition at 1 µM: `CN(c1ncnc2[nH]ccc12)[C@H]1CN(S(=O)(=O)N2CCCCC2)CC12CC2`
OUTPUT: 56

INPUT: State its inhibition at 1 µM: `CN(c1ncnc2[nH]ccc12)[C@H]1CN(C(=O)Nc2ccc(Cl)c(Cl)c2)CC12CC2`
OUTPUT: 13

INPUT: State its inhibition at 1 µM: CNC(=O)CC(=O)N1CC(N(C)c2ncnc3[nH]ccc23)C2(CC2)C1 (stereo not shown)
OUTPUT: 7

INPUT: State its inhibition at 1 µM: `CN(c1ncnc2[nH]ccc12)[C@H]1CN(S(=O)(=O)c2ccc(F)cc2)CC12CC2`
OUTPUT: 95

INPUT: State its inhibition at 1 µM: CN(c1ncnc2[nH]ccc12)C1CN(S(=O)(=O)CCN)CC12CC2 (stereo not shown)
OUTPUT: 43

INPUT: State its inhibition at 1 µM: `Cc1ccc(NC(=O)N2C[C@H](N(C)c3ncnc4[nH]ccc34)C3(CC3)C2)cc1Cl`
OUTPUT: 19
